- System: Enterobacter cloacae
- ASSAY_METHOD_TEXT: MIC against Gram-negative bacteria: Enterobacter cloacae
- Format: cell-based
- APPLIED_CONDITIONS: Enterobacter cloacae; 5×10^5 CFU/mL; 10 h cultivation at 37° C.
OBSERVATION_TYPE: MIC against E. cloacae (µg/mL)

[
  {
    "SUBSTANCE": "PRT1353 (SDMSCPNDCHQHGRCVNGMCVCDDGYTGEDCR; listed as Homo sapiens)",
    "OBSERVATION_TYPE": "MIC against E. cloacae",
    "UNIT_OF_MEASURE": "µg/mL",
    "NUMERIC_VALUE": 12.5
  },
  {
    "SUBSTANCE": "PRT1360 (NKPLCLNNCYNRGRCVENECVCDEGFTGEDCS; listed as Homo sapiens)",
    "OBSERVATION_TYPE": "MIC against E. cloacae",
    "UNIT_OF_MEASURE": "µg/mL",
    "NUMERIC_VALUE": 12.5
  },
  {
    "SUBSTANCE": "PRT1457 (CQCHGHADNCDTTSQPYRCLCSQESFTEGLHCDRCLPLYNDKPFRQGDQVYAFNCKP; listed as Homo sapiens)",
    "OBSERVATION_TYPE": "MIC against E. cloacae",
    "UNIT_OF_MEASURE": "µg/mL",
    "NUMERIC_VALUE": 12.5
  },
  {
    "SUBSTANCE": "PRT1479 (AKNECHPERTDGCQHFCLPGQESYTCSCAQGYRLGEDHKQCV; listed as Homo sapiens)",
    "OBSERVATION_TYPE": "MIC against E. cloacae",
    "UNIT_OF_MEASURE": "µg/mL",
    "NUMERIC_VALUE": 50
  },
  {
    "SUBSTANCE": "PRT1416 (IEICAADCGGHGVCVGGTCRCEDGWMGAACDQ; listed as Homo sapiens)",
    "OBSERVATION_TYPE": "MIC against E. cloacae",
    "UNIT_OF_MEASURE": "µg/mL",
    "NUMERIC_VALUE": 25
  },
  {
    "SUBSTANCE": "PRT1354 (RDRQCPRDCSNRGLCVDGQCVCEDGFTGPDCA; listed as Homo sapiens)",
    "OBSERVATION_TYPE": "MIC against E. cloacae",
    "UNIT_OF_MEASURE": "µg/mL",
    "NUMERIC_VALUE": 25
  },
  {
    "SUBSTANCE": "PRT1418 (IAHYLDRVVKEGCPGLCNGNGRCTLDLNGWHCVCQLGWRGAGCD; listed as Homo sapiens)",
    "OBSERVATION_TYPE": "MIC against E. cloacae",
    "UNIT_OF_MEASURE": "µg/mL",
    "NUMERIC_VALUE": 25
  },
  {
    "SUBSTANCE": "PRT1408 (NEICSVDCGSHGVCMGGTCRCEEGWTGPACNQ; listed as Homo sapiens)",
    "OBSERVATION_TYPE": "MIC against E. cloacae",
    "UNIT_OF_MEASURE": "µg/mL",
    "NUMERIC_VALUE": 25
  },
  {
    "SUBSTANCE": "PRT1456 (DYDECERKEDDCVPGTSCRNTLGSFTCSCEGGAPDFPVEYSE; listed as Homo sapiens)",
    "OBSERVATION_TYPE": "MIC against E. cloacae",
    "UNIT_OF_MEASURE": "µg/mL",
    "NUMERIC_VALUE": 25
  },
  {
    "SUBSTANCE": "PRT1421 (ATQSCNDLCEHFCVPNPDQPGSYSCMCETGYRLAADQHRCE; listed as Homo sapiens)",
    "OBSERVATION_TYPE": "MIC against E. cloacae",
    "UNIT_OF_MEASURE": "µg/mL",
    "NUMERIC_VALUE": 12.5
  }
]

###

Listed below: MIC against S. marcescens values for each entry.
- Tested on: Serratia marcescens
- ASSAY_METHOD_TEXT: MIC against Gram-negative bacteria: Serratia marcescens
- Type: cell-based
- APPLIED_CONDITIONS: Serratia marcescens; 96-well plate, 5×10^5 CFU/mL, 37° C., 10 h
- Description: 1. Gram-negative bacteria, such as E. coli BL21, Pseudomonas aeruginosa, Klebsiella pneumonia, Enterobacter cloacae, Aeromonas hydrophila, Citrobacter diversus, Moraxella catarrhalis, Proteus mirabilis, Proteus vulgaris, Serratia marcescens, etc were streaked on solid LB medium and cultured respectively. Then, typical clones were picked, inoculated into common liquid LB medium respectively, and cultured at 37° C. with shaking at 185 rpm until the McFarland specific turbidity was 0.5. […]
OBSERVATION_TYPE: MIC against S. marcescens

[
  {
    "SUBSTANCE": "PRT1323 (DCIECPGGAGSPCNGRGSCAEGMEGNGTCSCQEGFGGTACE; listed as Homo sapiens)",
    "OBSERVATION_TYPE": "MIC against S. marcescens",
    "RESULT": "12.5 µg/mL"
  },
  {
    "SUBSTANCE": "PRT1262 (DVDECSMSNGSCDQGCVNTKGSYECVCPPGRRLHWNGKDCV; listed as Homo sapiens)",
    "OBSERVATION_TYPE": "MIC against S. marcescens",
    "RESULT": "25 µg/mL"
  },
  {
    "SUBSTANCE": "PRT1226 (YTASCQDMSCSKQGECLETIGNYTCSCYPGFYGPECE; listed as Homo sapiens)",
    "OBSERVATION_TYPE": "MIC against S. marcescens",
    "RESULT": "25 µg/mL"
  },
  {
    "SUBSTANCE": "PRT1227 (NLKLCDASNHCDRHGVCNNFNHCHCEKGYNPPYCQ; listed as Homo sapiens)",
    "OBSERVATION_TYPE": "MIC against S. marcescens",
    "RESULT": "12.5 µg/mL"
  },
  {
    "SUBSTANCE": "PRT1218 (DINECEREECENGGSCVNVFGSFLCNCTPGYVGQYCG; listed as Homo sapiens)",
    "OBSERVATION_TYPE": "MIC against S. marcescens",
    "RESULT": "25 µg/mL"
  }
]

###

Listed below: MIC (μg/mL) P. aeruginosa values for each entry.
- Test system: Pseudomonas aeruginosa
- ASSAY_METHOD_TEXT: MIC against Gram-negative bacteria: Pseudomonas aeruginosa
- Type: cell-based
- APPLIED_CONDITIONS: P. aeruginosa; 10 h cultivation at 37° C.; 5×10^5 CFU/mL
OBSERVATION_TYPE: MIC (μg/mL) P. aeruginosa (µg/mL)

[
  {
    "SUBSTANCE": "PRT865 (CSCHPVGSAVLPANSVTFCDPSNGDCPCKPGVAGRRCDRCMVGYWGFGDYGCRP; listed as Homo sapiens)",
    "OBSERVATION_TYPE": "MIC (μg/mL) P. aeruginosa",
    "NUMERIC_VALUE": 25
  },
  {
    "SUBSTANCE": "PRT184 (DLNYCTHHSPCKNGATCSNSGQRSYTCTCRPGYTGVDCE; listed as Homo sapiens)",
    "OBSERVATION_TYPE": "MIC (μg/mL) P. aeruginosa",
    "NUMERIC_VALUE": 25
  },
  {
    "SUBSTANCE": "PRT216 (DIDECTAGTHNCRADQVCINLRGSFACQCPPGYQKRGEQCV; listed as Homo sapiens)",
    "OBSERVATION_TYPE": "MIC (μg/mL) P. aeruginosa",
    "NUMERIC_VALUE": 12.5
  }
]

###

Listed below: MIC (μg/mL) E. coli BL21 values for each entry.
- Tested on: E. coli BL21
- ASSAY_METHOD_TEXT: MIC against Gram-negative bacteria: E. coli BL21
- Assay type: cell-based
- APPLIED_CONDITIONS: E. coli BL21; 96-well plate, 5×10^5 CFU/mL, 37° C., 10 h
OBSERVATION_TYPE: MIC (μg/mL) E. coli BL21 (µg/mL)

[
  {
    "SUBSTANCE": "PRT112 (DINECTDFVDVPCSHFCNNFIGGYFCSCPPEYFLHDDMKNCG; listed as Homo sapiens)",
    "OBSERVATION_TYPE": "MIC (μg/mL) E. coli BL21",
    "NUMERIC_VALUE": 12.5
  },
  {
    "SUBSTANCE": "PRT132 (ISDRCLPNYCEHGGECSQSWSTFHCNCTNTGYRGATCH; listed as Homo sapiens)",
    "OBSERVATION_TYPE": "MIC (μg/mL) E. coli BL21",
    "NUMERIC_VALUE": 12.5
  },
  {
    "SUBSTANCE": "PRT25 (PGVCRNGGTCTDAPNGGFRCQCPAGGAFEGPRCE; listed as Homo sapiens)",
    "OBSERVATION_TYPE": "MIC (μg/mL) E. coli BL21",
    "NUMERIC_VALUE": 50
  },
  {
    "SUBSTANCE": "PRT102 (DRCLPNYCEHGGECSQSWSTFHCNCTNTGYRGATC; listed as Homo sapiens)",
    "OBSERVATION_TYPE": "MIC (μg/mL) E. coli BL21",
    "NUMERIC_VALUE": 12.5
  },
  {
    "SUBSTANCE": "PRT18 (CQCNPHGSYGGTCDPATGQCSCRPGVGGLRCDRCEPGFWNFRGIVTDGRSGCTP; listed as Homo sapiens)",
    "OBSERVATION_TYPE": "MIC (μg/mL) E. coli BL21",
    "NUMERIC_VALUE": 50
  },
  {
    "SUBSTANCE": "PRT71 (VDACHLNPCENMGACVRSPGSPQGYVCECGPSHYGPYCE; listed as Homo sapiens)",
    "OBSERVATION_TYPE": "MIC (μg/mL) E. coli BL21",
    "NUMERIC_VALUE": 25
  },
  {
    "SUBSTANCE": "PRT117 (DVDECALGRSPCAQGCTNTDGSFHCSCEEGYVLAGEDGTQCQ; listed as Homo sapiens)",
    "OBSERVATION_TYPE": "MIC (μg/mL) E. coli BL21",
    "NUMERIC_VALUE": 12.5
  },
  {
    "SUBSTANCE": "PRT45 (SINSCPNNCSGHGKCTTSVSVPSQVYCECDKYWKGEACD; listed as Homo sapiens)",
    "OBSERVATION_TYPE": "MIC (μg/mL) E. coli BL21",
    "NUMERIC_VALUE": 25
  },
  {
    "SUBSTANCE": "hF VII-EGF1: human coagulation factor VII-EGF1 domain protein, molecular weight about 3.9 kD, recombinant, released from RFP fusion by rTEV (DGDQCASSPCQNGGSCKDQLQSYICFCLPAFEGRNCE; listed as Homo sapiens)",
    "OBSERVATION_TYPE": "MIC (μg/mL) E. coli BL21",
    "NUMERIC_VALUE": 12.5
  },
  {
    "SUBSTANCE": "PRT35 (AMDLCARRLLDPCEHQCDPETGRREHRAAGECLCYEGYMKDPVHKHLCI; listed as Homo sapiens)",
    "OBSERVATION_TYPE": "MIC (μg/mL) E. coli BL21",
    "NUMERIC_VALUE": 50
  },
  {
    "SUBSTANCE": "PRT72 (NKLDLPCPRGWWGNPVCGPCHCAVSKGFDPDCN; listed as Homo sapiens)",
    "OBSERVATION_TYPE": "MIC (μg/mL) E. coli BL21",
    "NUMERIC_VALUE": 12.5
  },
  {
    "SUBSTANCE": "PRT1494 (KALCTPRCMNGGLCVTPGFCICPPGFYGVNCD; listed as Homo sapiens)",
    "OBSERVATION_TYPE": "MIC (μg/mL) E. coli BL21",
    "NUMERIC_VALUE": 12.5
  },
  {
    "SUBSTANCE": "PRT17 (AGHPCTRASGHPCLNGASCVPREAAYVCLCPGGFSGPHCE; listed as Homo sapiens)",
    "OBSERVATION_TYPE": "MIC (μg/mL) E. coli BL21",
    "NUMERIC_VALUE": 12.5
  },
  {
    "SUBSTANCE": "PRT67 (EIDLCYSDPCGANGRCRSREGGYTCECFEDFTGEHCE; listed as Homo sapiens)",
    "OBSERVATION_TYPE": "MIC (μg/mL) E. coli BL21",
    "NUMERIC_VALUE": 50
  }
]
